Target: T1, murine CD22 protein (ACROBiosystems, SI2-M52Ha) (murine, UniProt P35329 22-708)
T1 construct: extracellular domain; also called murine CD22-ECD; murine CD22-ECD-His
T1 sequence (looked up): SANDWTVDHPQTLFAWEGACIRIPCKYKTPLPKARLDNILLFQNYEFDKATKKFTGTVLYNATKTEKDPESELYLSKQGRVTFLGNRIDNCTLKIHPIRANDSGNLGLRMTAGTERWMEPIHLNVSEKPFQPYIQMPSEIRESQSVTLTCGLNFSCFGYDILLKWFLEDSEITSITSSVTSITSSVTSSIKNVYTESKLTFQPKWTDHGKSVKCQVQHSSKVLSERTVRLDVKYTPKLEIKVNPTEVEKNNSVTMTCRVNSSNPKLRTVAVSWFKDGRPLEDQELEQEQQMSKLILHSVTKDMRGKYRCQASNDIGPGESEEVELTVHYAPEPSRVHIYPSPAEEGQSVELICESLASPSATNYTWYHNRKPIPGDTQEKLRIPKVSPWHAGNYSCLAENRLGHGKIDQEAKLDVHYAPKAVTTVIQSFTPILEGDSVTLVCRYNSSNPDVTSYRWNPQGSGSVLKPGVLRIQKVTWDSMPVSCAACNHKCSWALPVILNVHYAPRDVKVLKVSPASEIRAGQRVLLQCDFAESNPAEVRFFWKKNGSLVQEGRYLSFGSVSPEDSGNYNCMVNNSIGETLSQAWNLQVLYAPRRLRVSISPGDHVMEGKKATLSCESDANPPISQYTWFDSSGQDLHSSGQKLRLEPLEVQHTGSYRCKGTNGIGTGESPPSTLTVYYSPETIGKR
Assay: ELISA, coated murine CD22, 10 nM Ab
parameter-measured: OD450 (OD450)
A number alone suffices; assume OD450.

{"columns": ["binder", "OD450 / OD450"],
 "data": [
  ["F1.245.2 human-murine chimeric antibody (antibody, human IgG1, kappa, V domains shown, Chimeric, human IgG1 / kappa) VH: EVQLQQSGAELVKPGASVKLSCTGSGFNIKDYYIHWVKQRTEQGLEWMGRIDPEDGETEYAPKFQDEATITSDTSSNTAYLQLSSLTYEDTAVYYCAREAAGYFYRGSSYGYFDVWGTGTTVTVSS VL: DFQMTQTTSFLSASLGDRVTISCSASQDISNYLNWYQQKPDGTVKLLIYYTSSLHSGVPSRFSGSGSGTDYSLTISNLEPEDIATYYCQQYSMLPYTFGGGTKLEMER", 0.07],
  ["F2.151.13 human-murine chimeric antibody (antibody, human IgG1, lambda, V domains shown, Chimeric, human IgG1 / lambda) VH: QVHLQQPGTELMKPGASVKLSCKATGYTFRDYWLEWVKQRPGHGLEWIGEILPGSGNAYYNEKFKGKATFTADTSSNTAYMQLSSLTTEDSAIYYCARVYSNWYFDAWGKGTTVTVSS VL: QAVVTQESALTTSPGETVTLTCRSSTGAVTTSNYANWVQEKPDHLFTGLIGGTNNQAPGVPARFSGSLIGDKAALTISGAQTEDEAIYFCALWFSNHWVFGGGTKLTVLG", 0.08],
  ["F1.231.15 human-murine chimeric antibody (antibody, human IgG1, V domains shown, Chimeric: murine V regions on human IgG1 heavy constant region and kappa light constant region) VH: QVQLQQPGAELVKPGASVKLSCKTSGYTFTIYWMQWVKQRPGRGLEWIGRIDPHSGDTHYNENFTTKVTLTVDETSNTAYMHLSGLTSEDSAVYYCARRDYSYYVLDYWGQGTSVTVSS VL: DVVLTQTPLSLPVSLGDQASISCRSSQSLVHINGDTYLHWYLQKPGQSPKLLIYTVFNRFSGVPDRFSGSGSGTDFTLKISRVEAEDLGAYFCSQSTHVPYTFGGGTKLEIKR", 0.06],
  ["F2.121.9 human-murine chimeric antibody (antibody, human IgG1, lambda, V domains shown, Chimeric, human IgG1 / lambda) VH: EVQLVESGGGLVKPGGSLKLSCAASGFTFSDYVMSWIRQTPEKRLEWVATISDAGSYTFYPDNLKGRFTISRDNAKNNLYLQMNHLTSEDTAFYYCAIIYFGNYGGYWGQGTLVTVSV VL: QAVVTQESALTTSPGGTVVLTCRSNTGAVTTSNYANWVQEKPDHLFTGLIGGTSNRAPGVPVRFSGSLIGDKAALTITGAQTEDDAMYFCALWYSTHWVFGGGTKLTVLG", 0.06]
]}

// next item, OD450 requested
// query Please look up its OD450: F1.257.3 human-murine chimeric antibody (antibody, human IgG1, kappa, V domains shown, Chimeric, human IgG1 / kappa; VL tied by name) VH: QVQLQQSGPELARPGASVKLSCKASGYTFTSYGISWVKQRTGQDLEWIGEIYPKLGTTYYNEKFKDKATLTTDRSSSTAYMALRSLTSEDSAVYFCACPHYYATRGGDYWGQGTTLTVSS VL: EIVLTQSPATLSVTPGDSVTFSCRASQSISNHLHWYQQKSHESPRLLIRYASQSISGIPSRFSGSGSGTDFTLSLSSVETEDFGVYFCQQSHSWPYTFGGGTKLEIAR
// result 0.07

All values here come from patent US20240084003A1.
